- study target: human TLR7 (Homo sapiens)
- Construct: host or cells: HEK293 (HEK-Blue hTLR7)
- Sequence (Q9NYK1 27-1049): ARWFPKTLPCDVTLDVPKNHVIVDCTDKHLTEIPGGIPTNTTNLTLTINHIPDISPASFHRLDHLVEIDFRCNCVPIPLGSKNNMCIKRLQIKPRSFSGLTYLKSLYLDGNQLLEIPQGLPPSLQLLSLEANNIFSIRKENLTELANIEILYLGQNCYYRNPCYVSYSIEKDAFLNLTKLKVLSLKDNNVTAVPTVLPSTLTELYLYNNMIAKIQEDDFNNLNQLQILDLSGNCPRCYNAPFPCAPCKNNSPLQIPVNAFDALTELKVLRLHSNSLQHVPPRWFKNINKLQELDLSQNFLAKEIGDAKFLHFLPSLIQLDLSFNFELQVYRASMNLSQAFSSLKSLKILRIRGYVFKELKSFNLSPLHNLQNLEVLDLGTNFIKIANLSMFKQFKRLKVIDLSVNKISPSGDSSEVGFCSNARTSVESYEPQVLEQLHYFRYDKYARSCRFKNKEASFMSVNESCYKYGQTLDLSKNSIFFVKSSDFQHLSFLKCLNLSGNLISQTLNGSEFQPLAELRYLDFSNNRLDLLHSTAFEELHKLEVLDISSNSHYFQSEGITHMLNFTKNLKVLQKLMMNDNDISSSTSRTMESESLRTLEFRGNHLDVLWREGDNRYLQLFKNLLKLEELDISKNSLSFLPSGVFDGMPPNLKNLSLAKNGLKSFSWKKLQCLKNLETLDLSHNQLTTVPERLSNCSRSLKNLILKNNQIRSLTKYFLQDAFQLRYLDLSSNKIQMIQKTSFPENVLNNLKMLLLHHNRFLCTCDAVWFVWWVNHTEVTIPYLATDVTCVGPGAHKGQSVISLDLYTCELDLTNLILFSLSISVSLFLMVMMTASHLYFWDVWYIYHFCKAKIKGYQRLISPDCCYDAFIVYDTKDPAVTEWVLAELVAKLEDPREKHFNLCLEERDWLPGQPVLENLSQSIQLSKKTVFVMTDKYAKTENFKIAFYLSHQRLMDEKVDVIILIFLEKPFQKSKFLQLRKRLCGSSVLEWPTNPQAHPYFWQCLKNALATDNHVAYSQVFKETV
- test: HEK293-Blue hTLR7 Reporter Assay (QUANTI-BLUE, SEAP readout)
- Assay type: cell-based
- settings: HEK-Blue-hTLR7 cells, 24 hrs treatment, Table 1, B1-B232
reported metric: EC50 (nM)

Would you please look over these solved cases?
# molecule, unit abbreviation, quantitative result
measured = [
    ("CCCCOc1nc(N)c2ncc(Cc3cnc(N4CCC(N5CCN(C)CC5)CC4)c(C)c3)n2n1 [Compound B130]", "nM", 38),
    ("CCCCOc1nc(N)c2ncc(Cc3cnc(N4CCNCC4)c(C(F)(F)F)c3)n2n1 [Compound B10]", "nM", 417),
    ("CCCC(C)Nc1nc(N)c2ncc(Cc3cnc(N4CCN(C(=O)CNC)CC4)c(C)c3)n2n1 (centres unmarked) [Compound B149]", "nM", 6.3),
]

1. CCCCOc1nc(N)c2ncc(Cc3ccc(C4CCCNC4)cc3)n2n1 (centres unmarked) [Compound B20]
2. CCCCOc1nc(N)c2ncc(Cc3ccc(N4CCN[C@H](C)C4)c(C)c3)n2n1 [Compound B98]
3. CCC[C@H](C)Oc1nc(N)c2ncc(Cc3cnc(N4CCN(C(=O)CNC)CC4)c(C)c3)n2n1 [Compound B154]
4. CCCC(CC)Oc1nc(N)c2ncc(Cc3cnc(N4CCN(C(=O)CNC)CC4)c(C)c3)n2n1 (centres unmarked) [Compound B181]
5. CCCOc1nc(N)c2ncc(Cc3cnc(N4CCNCC4)c(C)c3)n2n1 [Compound B93]
Rank by EC50 (largest to smallest). // format: requested-order list of labels
1, 2, 5, 4, 3
(1: 7990 nM, 2: 1130 nM, 5: 641 nM, 4: 7.8 nM, 3: 1.6 nM)

* * *

- study target: human TLR7 (Homo sapiens)
- Construct: host or cells: HEK293 (HEK-Blue hTLR7)
- test: HEK293-Blue hTLR7 Reporter Assay (QUANTI-BLUE, SEAP readout)
- Format: cell-based
- settings: HEK-Blue-hTLR7 cells, 24 hrs treatment, Table 1, B1-B232
pEC50: −log10 of the molar value.
reported metric: pEC50

Here's what some known entries look like.
# compound, reported metric, quantitative result
rows = [
    ("CCCCOc1nc(N)c2ncc(Cc3cnc(N4CCNCC4)c(CC)c3)n2n1 [Compound B183]", "pEC50", 7.03),
    ("CC[C@@H](C)Oc1nc(N)c2ncc(Cc3cnc(N4CCN(C(=O)CN(C)C)CC4)c(C)c3)n2n1 [Compound B153]", "pEC50", 7.31),
    ("CCCC(C)Oc1nc(N)c2ncc(Cc3cnc(N4CCN(C(=O)CNC)CC4)c(C)c3)n2n1 (stereo not shown) [Compound B111]", "pEC50", 8.01),
    ("CCC[C@H](C)Oc1nc(N)c2ncc(Cc3cnc(N4CCC(NCC(C)C)CC4)c(C)c3)n2n1 [Compound B215]", "pEC50", 8.38),
    ("CCC[C@@H](C)Oc1nc(N)c2ncc(Cc3cnc(N4CCN(C(=O)CNC)CC4)c(C)c3)n2n1 [Compound B160]", "pEC50", 7.60),
    ("CCCCOc1nc(N)c2ncc(Cc3ccc(N4CCNCC4)nc3C)n2n1 [Compound B53]", "pEC50", 6.10),
    ("CCC(C)Oc1nc(N)c2ncc(Cc3cnc(N4CCN(C(=O)CN(C)C)CC4)c(C)c3)n2n1 (stereo not shown) [Compound B155]", "pEC50", 8.08),
    ("CCC[C@H](C)Oc1nc(N)c2ncc(Cc3cnc(N4CCN(C(=O)CN(C)C)CC4)c(C)c3)n2n1 [Compound B125]", "pEC50", 8.60),
]

I. CCCCOc1nc(N)c2ncc(Cc3cnc(N4CCN(C(=O)CN(CC)CC)CC4)c(C)c3)n2n1 [Compound B170]
II. CCCC(CCC)Oc1nc(N)c2ncc(Cc3cnc(N4CCC(N(C)C)CC4)c(C)c3)n2n1 [Compound B186]
Lab notebook, comparison: I versus II , higher pEC50 goes to which? Respond with the label that goes with your answer.
II

a. CCCCOc1nc(N)c2ncc(Cc3cnc(N4CCC(CN(C)C)C4)c(C)c3)n2n1 (stereo not shown) [Compound B105]
b. CCC(CC)Nc1nc(N)c2ncc(Cc3cnc(N4CCN(C(=O)CNC)CC4)c(C)c3)n2n1 [Compound B175]
c. CCC[C@@H](CC)Oc1nc(N)c2ncc(Cc3cnc(N4CCNCC4)c(C)c3)n2n1 (single isomer, unassigned) [Compound B225]
Arrange the 3 compounds by rising pEC50, starting with the smallest. In your reply, arrange the labels in the requested order.
a, c, b
(a: 6.75, c: 7.59, b: 8.48)

P. CCCC(CCC)Nc1nc(N)c2ncc(Cc3cnc(N4CCC(N(C)C)CC4)c(C)c3)n2n1 [Compound B184]
Q. CCCC(C)Nc1nc(N)c2ncc(Cc3cnc(N4CCC(CNC)CC4)c(C)c3)n2n1 (stereo not shown) [Compound B204]
R. CCCCOc1nc(N)c2ncc(Cc3cc(C)c(C4CCNCC4)cn3)n2n1 [Compound B47]
S. CCCCOc1nc(N)c2ncc(Cc3cnc(N4CCN(CCN)CC4)c(C)c3)n2n1 [Compound B91]
Which order do these items take when sorted by rising pEC50? List them. Lab note: record answer as labels in requested order.
R, S, Q, P

I. CCC[C@H](CC)Oc1nc(N)c2ncc(Cc3cnc(N4CCNCC4)c(C)c3)n2n1 (single isomer, unassigned) [Compound B224]
II. Cc1cc(Cc2cnc3c(N)nc(OCC4CCOCC4)nn23)cnc1N1CCNCC1 [Compound B194]
III. CCCCOc1nc(N)c2ncc(Cc3ccc(C4CCNCC4)cc3)n2n1 [Compound B3]
IV. CCCC(C)Oc1nc(N)c2ncc(Cc3cnc(N4CCN(C(=O)CN(C)C)CC4)c(C)c3)n2n1 (stereo not shown) [Compound B94]
With regard to pEC50, arrange the entries in ascending order, please. Answer by listing the labels in the order asked for.
III, II, IV, I
(III: 6.49, II: 7.10, IV: 7.89, I: 8.29)

All values here come from patent US12612407B2.
